assay: Solubility in FaSSIF; conditions: 23 °C, pH 6.5, fassif, thermodynamic from solid
QUANTITY NAME: solubility at 2 h
Param answer (str): number followed by unit.

>  <MOLECULE>
COC(=O)N[C@H](C(=O)N[C@@H](Cc1ccc(C#Cc2cnc(N3CC4CCC(C3)N4C3COC3)nc2)cc1)[C@H](CN(Cc1c(F)cc(-c2ccn(C(F)F)n2)cc1F)NC(=O)[C@@H](NC(=O)OC)C(C)(C)C(F)(F)F)OC(=O)OCOC(=O)CC(C)(C)c1c(CC(=O)N2CCN(CC(=O)O)CC2)cc(C)cc1OP(=O)(O)O)C(C)(C)C(F)(F)F [Example 77]

>  <solubility at 2 h>
2760 µg/mL

$$$$

Quick check: solubility at 2 h of COC(=O)N[C@H](C(=O)N[C@@H](Cc1ccc(C#Cc2cnc(N3CC4CCC(C3)N4C3COC3)nc2)cc1)[C@H](CN(Cc1c(F)cc(-c2ccn(C(F)F)n2)cc1F)NC(=O)[C@@H](NC(=O)OC)C(C)(C)C(F)(F)F)OC(=O)CC(C)(C)c1c(CC(=O)N(C)[C@@H](C)C(=O)O)cc(C)cc1OP(=O)(O)O)C(C)(C)C(F)(F)F [Example 97] ?
4660 µg/mL

Look up solubility at 2 h for this molecule: COC(=O)N[C@H](C(=O)N[C@@H](Cc1ccc(C#Cc2cnc(N3CC4CCC(C3)N4C3COC3)nc2)cc1)[C@H](CN(Cc1c(F)cc(-c2ccn(C(F)F)n2)cc1F)NC(=O)[C@@H](NC(=O)OC)C(C)(C)C(F)(F)F)OC(=O)CC(C)(C)c1c(CC(=O)NCc2ccc(C(=O)O)cc2)cc(C)cc1OP(=O)(O)O)C(C)(C)C(F)(F)F [Example 49]
1220 µg/mL

Look up solubility at 2 h for this molecule: COC(=O)N[C@H](C(=O)N[C@@H](Cc1ccc(C#Cc2cnc(N3CC4CCC(C3)N4C3COC3)nc2)cc1)[C@H](CN(Cc1c(F)cc(-c2ccn(C(F)F)n2)cc1F)NC(=O)[C@@H](NC(=O)OC)C(C)(C)C(F)(F)F)OC(=O)CC(C)(C)c1c(CC(=O)NCC(=O)O)cc(C)cc1OP(=O)(O)O)C(C)(C)C(F)(F)F [Example 74]
3340 µg/mL

Quick one: solubility at 2 h of COC(=O)N[C@H](C(=O)N[C@@H](Cc1ccc(C#Cc2cnc(N3CC4CCC(C3)N4C3COC3)nc2)cc1)[C@H](CN(Cc1c(F)cc(-c2ccn(C(F)F)n2)cc1F)NC(=O)[C@@H](NC(=O)OC)C(C)(C)C(F)(F)F)OC(=O)CC(C)(C)c1c(CC(=O)N(C)CC(=O)O)cc(C)cc1OP(=O)(O)O)C(C)(C)C(F)(F)F [Example 95] ?
4260 µg/mL

Fill in the blank: the reported solubility at 2 h of COC(=O)N[C@H](C(=O)N[C@@H](Cc1ccc(C#Cc2cnc(N3CC4CCC(C3)N4C3COC3)nc2)cc1)[C@H](CN(Cc1c(F)cc(-c2ccn(C(F)F)n2)cc1F)NC(=O)[C@@H](NC(=O)OC)C(C)(C)C(F)(F)F)OC(=O)CC(C)(C)c1c(CC(=O)N2C[C@@H](C(=O)O)C[C@H]2C(=O)O)cc(C)cc1OP(=O)(O)O)C(C)(C)C(F)(F)F [Example 10] is ____.
3120 µg/mL

Quick one: solubility at 2 h for COC(=O)N[C@H](C(=O)N[C@@H](Cc1ccc(C#Cc2cnc(N3CC4CCC(C3)N4C3COC3)nc2)cc1)[C@H](CN(Cc1c(F)cc(-c2ccn(C(F)F)n2)cc1F)NC(=O)[C@@H](NC(=O)OC)C(C)(C)C(F)(F)F)OC(=O)CC(C)(C)c1c(CC(=O)N[C@@H](CCS(=O)(=O)O)C(=O)O)cc(C)cc1OP(=O)(O)O)C(C)(C)C(F)(F)F [Example 33] ?
4240 µg/mL

I am curious: what solubility at 2 h value has been reported for COC(=O)N[C@H](C(=O)N[C@@H](Cc1ccc(C#Cc2cnc(N3CC4CCC(C3)N4C3COC3)nc2)cc1)[C@H](CN(Cc1c(F)cc(-c2ccn(C(F)F)n2)cc1F)NC(=O)[C@@H](NC(=O)OC)C(C)(C)C(F)(F)F)OC(=O)CC(C)(C)c1c(CC(=O)N(CCCC(=O)O)CCC(=O)O)cc(C)cc1OP(=O)(O)O)C(C)(C)C(F)(F)F [Example 36] ?
4260 µg/mL
